# Tested on: Male Sprague-Dawley Rats
# Protocol description: Serum clinical chemistries in male Sprague-Dawley rats
# Assay type: in vivo
# Details: rat serum, 0.3% in diet, 4 days, N = 5
Listing of entries alongside the reported ALT (alanine aminotransferase), percent of control.
Answer with the value and then the unit.

The examples below pair each entry with its known result.
Item CC(CCCC(C)(C)O)CCSc1cc(C(C)(C)C)c(O)c(C(C)(C)C)c1 (centres unmarked) has what recorded ALT (alanine aminotransferase), percent of control?
129%

Using the record for CC(C)=CCCC(C)CCOc1ccc(O)c(C(C)(C)C)c1 (centres unmarked) , report its ALT (alanine aminotransferase), percent of control.
122%

Given CC(C)CCCC(C)CCOc1ccc(O)c(C(C)(C)C)c1 (centres unmarked) , state its recorded ALT (alanine aminotransferase), percent of control.
149%

Could you tell me which ALT (alanine aminotransferase), percent of control is on file for `CC(C)=CCC[C@H](C)CCSc1ccc(O)c(C(C)(C)C)c1` ?
120%

Next:
What value of ALT (alanine aminotransferase), percent of control has been reported for the following molecule? `CC(C)=CCC[C@@H](C)CCOc1cc(C(C)(C)C)c(O)c(C(C)(C)C)c1`
108%
